test system: NCI-H23; assay: NCI anticancer screening, Non-Small Cell Lung Cancer NCI-H23; type: cell-based; conditions: Homo sapiens; NCI-H23, 10 μM; read-out: % Growth Inhibition (GI %)
PROPERTY: inhibition at 10 µM (%)

O=C(c1nc2ccccc2[nH]1)[C@H]1[C@H](c2cccs2)C2CSCN2[C@]12C(=O)Nc1ccccc12 (stereo partly shown) = 103
O=C(c1nc2ccccc2[nH]1)[C@H]1[C@H](c2ccc(C(F)(F)F)cc2)C2CSCN2[C@]12C(=O)Nc1ccccc12 (stereo partly shown) = 82.3
O=C(c1nc2ccccc2[nH]1)[C@H]1[C@H](c2ccc(Cl)cc2Cl)C2CSCN2[C@]12C(=O)Nc1ccccc12 (stereo partly shown) = 85.4
COc1cc([C@@H]2C3CSCN3[C@]3(C(=O)Nc4ccccc43)[C@H]2C(=O)c2nc3ccccc3[nH]2)cc(OC)c1OC (stereo partly shown) = 104
O=C(c1nc2ccccc2[nH]1)[C@H]1[C@H](c2cccc(F)c2)C2CSCN2[C@]12C(=O)Nc1ccccc12 (stereo partly shown) = 90.7
O=C(c1nc2ccccc2[nH]1)[C@H]1[C@H](c2ccccc2O)C2CSCN2[C@]12C(=O)Nc1ccccc12 (stereo partly shown) = 96.5
O=C(c1nc2ccccc2[nH]1)[C@H]1[C@H](c2ccc(Br)cc2)C2CSCN2[C@]12C(=O)Nc1ccccc12 (stereo partly shown) = 75
